Attribute: NADPH fluorescence slope
biological target: Voltage-gated potassium channel subunit beta-2 (Rattus norvegicus) (UniProt P62483); experiment: enhancers of rat Kvbeta2 NADPH turnover – biochemical, NADPH fluorescence, primary screen (AID 623); conditions: Recombinant KvBeta, NADPH fluorescence decrease slope, 10 min; at 10 µM; hits give low values;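 further: fluorescence intensity change per second fitted from 20 to 320 s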
Sequence (P62483 whole entry, looked up): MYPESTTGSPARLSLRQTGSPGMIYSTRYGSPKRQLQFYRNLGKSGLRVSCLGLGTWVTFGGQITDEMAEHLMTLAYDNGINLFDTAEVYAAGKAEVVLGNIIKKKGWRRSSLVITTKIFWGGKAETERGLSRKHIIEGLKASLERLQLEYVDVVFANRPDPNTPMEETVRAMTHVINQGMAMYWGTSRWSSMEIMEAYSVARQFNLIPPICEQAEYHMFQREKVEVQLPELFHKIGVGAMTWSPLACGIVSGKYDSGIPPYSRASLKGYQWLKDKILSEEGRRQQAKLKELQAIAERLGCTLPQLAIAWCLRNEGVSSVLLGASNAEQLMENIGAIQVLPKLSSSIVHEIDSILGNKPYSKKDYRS
Metric: NADPH fluorescence slope

Compound: COc1cccc(-n2nnc3c(=O)n(Cc4cccc(F)c4)cnc32)c1
Target Of Assay: Voltage-gated potassium channel subunit beta-2 (Rattus norvegicus) (UniProt P62483)
Recorded Number: -7e-06

Compound: CCCC1O[C@@H]2C[C@H]3[C@@H]4CCC5=CC(=O)C=C[C@]5(C)[C@H]4[C@@H](O)C[C@]3(C)[C@]2(C(=O)CO)O1 (stereo not given in full)
Target Of Assay: Voltage-gated potassium channel subunit beta-2 (Rattus norvegicus) (UniProt P62483)
Recorded Number: 1.2e-05

Compound: COc1ccc(-c2n[nH]c(C)c2-c2ccc(Cl)cc2)c(O)c1OC
Target Of Assay: Voltage-gated potassium channel subunit beta-2 (Rattus norvegicus) (UniProt P62483)
Recorded Number: -0.00026

Compound: CCOC(=O)c1ccc(-c2c(C(=O)OCC)oc3cc(O)c(CC)cc3c2=O)o1
Target Of Assay: Voltage-gated potassium channel subunit beta-2 (Rattus norvegicus) (UniProt P62483)
Recorded Number: -2.5e-05

Compound: CCn1c(SCC(=O)NCCc2ccc(Cl)cc2)nnc1-c1cccs1
Target Of Assay: Voltage-gated potassium channel subunit beta-2 (Rattus norvegicus) (UniProt P62483)
Recorded Number: -5e-05

Compound: CCOc1ccccc1Nc1nc2ccccc2[nH]1
Target Of Assay: Voltage-gated potassium channel subunit beta-2 (Rattus norvegicus) (UniProt P62483)
Recorded Number: -0.000156

Compound: COCCCNC(=O)CCc1nc2cccnc2n1Cc1ccc(OC)cc1
Target Of Assay: Voltage-gated potassium channel subunit beta-2 (Rattus norvegicus) (UniProt P62483)
Recorded Number: -2.5e-05

Compound: CC1=C(C#N)C(c2ccc3ncccc3c2)C(C#N)=C(C)N1
Target Of Assay: Voltage-gated potassium channel subunit beta-2 (Rattus norvegicus) (UniProt P62483)
Recorded Number: 1.3e-05

Compound: COCCN1C(=O)C(=O)/C(=C(/O)c2ccc(OC(C)C)cc2)C1c1cccnc1 (stereo not given)
Target Of Assay: Voltage-gated potassium channel subunit beta-2 (Rattus norvegicus) (UniProt P62483)
Recorded Number: -1.5e-05

Compound: CCN(CC)C(=O)c1ccc(NS(=O)(=O)c2ccccc2)cc1
Target Of Assay: Voltage-gated potassium channel subunit beta-2 (Rattus norvegicus) (UniProt P62483)
Recorded Number: -0.000282

Compound: O=C(O)CCCNS(=O)(=O)c1ccc(NCc2ccccc2)c(C(=O)O)c1
Target Of Assay: Voltage-gated potassium channel subunit beta-2 (Rattus norvegicus) (UniProt P62483)
Recorded Number: -5e-05

Compound: O=C1NC(c2ccccc2)(C(F)(F)F)SC2=NCCCN12 (stereo not given)
Target Of Assay: Voltage-gated potassium channel subunit beta-2 (Rattus norvegicus) (UniProt P62483)
Recorded Number: 4.2e-05

Compound: O=S(=O)(NCCc1ccccn1)c1cccs1
Target Of Assay: Voltage-gated potassium channel subunit beta-2 (Rattus norvegicus) (UniProt P62483)
Recorded Number: -0.000114

Compound: CCOC(=O)CCC(=O)Nc1ccc(S(=O)(=O)N2CCCC2)cc1
Target Of Assay: Voltage-gated potassium channel subunit beta-2 (Rattus norvegicus) (UniProt P62483)
Recorded Number: 2.8e-05

Compound: COc1ccccc1C1c2c(oc3ccc(Cl)cc3c2=O)C(=O)N1c1cc(C)on1 (stereo not given)
Target Of Assay: Voltage-gated potassium channel subunit beta-2 (Rattus norvegicus) (UniProt P62483)
Recorded Number: 2.1e-05

Compound: CCOC(=O)Cc1nn2c(=O)cc(C)nc2s1
Target Of Assay: Voltage-gated potassium channel subunit beta-2 (Rattus norvegicus) (UniProt P62483)
Recorded Number: 0.000188

Compound: CC(C)OC(=O)CSc1nnnn1-c1ccc2c(c1)OCCO2
Target Of Assay: Voltage-gated potassium channel subunit beta-2 (Rattus norvegicus) (UniProt P62483)
Recorded Number: -3.6e-05

Compound: O=c1oc2ccccc2c(N2CCCCC2)c1CN1CCCCC1
Target Of Assay: Voltage-gated potassium channel subunit beta-2 (Rattus norvegicus) (UniProt P62483)
Recorded Number: -6.2e-05

Compound: CCC(C)(C)n1nnnc1C(c1ccccc1OC)N1CCSCC1 (stereo not given)
Target Of Assay: Voltage-gated potassium channel subunit beta-2 (Rattus norvegicus) (UniProt P62483)
Recorded Number: -4.3e-05

Compound: O=C(O)C1CSC2c3ccccc3C(=O)N12 (stereo not given)
Target Of Assay: Voltage-gated potassium channel subunit beta-2 (Rattus norvegicus) (UniProt P62483)
Recorded Number: -6.7e-06

Compound: COc1ccccc1NC1=NC2(CCCC2)N=C(N)N1
Target Of Assay: Voltage-gated potassium channel subunit beta-2 (Rattus norvegicus) (UniProt P62483)
Recorded Number: -6.5e-06

Compound: CSC1CCCCC1(O)CSc1nc2c(cc1C#N)CCCC2 (stereo not given)
Target Of Assay: Voltage-gated potassium channel subunit beta-2 (Rattus norvegicus) (UniProt P62483)
Recorded Number: 1e-05

Compound: CN1CCCc2cc(C#N)c(=O)[nH]c21
Target Of Assay: Voltage-gated potassium channel subunit beta-2 (Rattus norvegicus) (UniProt P62483)
Recorded Number: 1e-05

Compound: CCOC(=O)COc1ccc(S(=O)(=O)N2CCc3ccccc3C2)cc1
Target Of Assay: Voltage-gated potassium channel subunit beta-2 (Rattus norvegicus) (UniProt P62483)
Recorded Number: -4.9e-05

Compound: COc1nc2ccc(C)cc2cc1-c1noc(-c2cccnc2)n1
Target Of Assay: Voltage-gated potassium channel subunit beta-2 (Rattus norvegicus) (UniProt P62483)
Recorded Number: 3.8e-06

Compound: Cc1ccc(CCNC(=O)Cn2cccc2)cc1
Target Of Assay: Voltage-gated potassium channel subunit beta-2 (Rattus norvegicus) (UniProt P62483)
Recorded Number: -5.5e-05

Compound: COc1ccccc1N1CCN(C(=O)CSc2nc(-c3ccccc3)cc(=O)[nH]2)CC1
Target Of Assay: Voltage-gated potassium channel subunit beta-2 (Rattus norvegicus) (UniProt P62483)
Recorded Number: 9.3e-06

Compound: COCCNC(=O)Cn1nc(C(F)(F)F)c(Br)c1C
Target Of Assay: Voltage-gated potassium channel subunit beta-2 (Rattus norvegicus) (UniProt P62483)
Recorded Number: -4.9e-05

Compound: CCOC(=O)c1sc(C)c2c(=O)n(CC)nnc12
Target Of Assay: Voltage-gated potassium channel subunit beta-2 (Rattus norvegicus) (UniProt P62483)
Recorded Number: -2.3e-06

Compound: O=C1CC(C(=O)Nc2ccccc2)C2(CCCC2)O1 (stereo not given)
Target Of Assay: Voltage-gated potassium channel subunit beta-2 (Rattus norvegicus) (UniProt P62483)
Recorded Number: -5.8e-05

Compound: Cc1cc(C)n(C(=O)CNC(=O)c2cccs2)n1
Target Of Assay: Voltage-gated potassium channel subunit beta-2 (Rattus norvegicus) (UniProt P62483)
Recorded Number: -3.1e-05

Compound: CCCn1nc(NS(=O)(=O)c2ccccc2)c2cc3ccccc3nc21
Target Of Assay: Voltage-gated potassium channel subunit beta-2 (Rattus norvegicus) (UniProt P62483)
Recorded Number: 2.9e-05

Compound: Cc1cccc2cc(CN(Cc3nnnn3C3CCCC3)C3CCCCC3)c(=O)[nH]c12
Target Of Assay: Voltage-gated potassium channel subunit beta-2 (Rattus norvegicus) (UniProt P62483)
Recorded Number: 4.8e-05

Compound: COC(=O)c1[nH]c2ccccc2c1NC(=O)CN1CCC(C(N)=O)(N2CCCCC2)CC1
Target Of Assay: Voltage-gated potassium channel subunit beta-2 (Rattus norvegicus) (UniProt P62483)
Recorded Number: -1.9e-05

Compound: O=C1CC(c2cccc(Cl)c2)CC(O)=C1C=NCCCO (stereo not given)
Target Of Assay: Voltage-gated potassium channel subunit beta-2 (Rattus norvegicus) (UniProt P62483)
Recorded Number: 4.1e-05

Compound: COC(=O)c1sc(NC(=O)c2ccoc2C)nc1C
Target Of Assay: Voltage-gated potassium channel subunit beta-2 (Rattus norvegicus) (UniProt P62483)
Recorded Number: 8.6e-06

Compound: CCN(CC)C(=O)Oc1ccccc1NC(C)=O
Target Of Assay: Voltage-gated potassium channel subunit beta-2 (Rattus norvegicus) (UniProt P62483)
Recorded Number: 2.5e-07

Compound: COc1ccc(OC)c(N(CC(=O)N2CCN(c3cc(Cl)ccc3C)CC2)S(C)(=O)=O)c1
Target Of Assay: Voltage-gated potassium channel subunit beta-2 (Rattus norvegicus) (UniProt P62483)
Recorded Number: -5.2e-05

Compound: Cc1ccc(-n2c(=O)c3sccc3n(CC(=O)NCc3ccco3)c2=O)cc1
Target Of Assay: Voltage-gated potassium channel subunit beta-2 (Rattus norvegicus) (UniProt P62483)
Recorded Number: -3.1e-05

Compound: CC(C)C[C@H]1C(=O)N2CCC[C@H]2[C@]2(O)O[C@](NC(=O)[C@@H]3C=C4c5cccc6[nH]c(Br)c(c56)CC4N(C)C3)(C(C)C)C(=O)N12 (stereo not given in full)
Target Of Assay: Voltage-gated potassium channel subunit beta-2 (Rattus norvegicus) (UniProt P62483)
Recorded Number: 8.6e-06

Compound: O=C(O)C1C2CCC(O2)C1C(=O)Nc1cccc(F)c1 (stereo not given)
Target Of Assay: Voltage-gated potassium channel subunit beta-2 (Rattus norvegicus) (UniProt P62483)
Recorded Number: -3.5e-06

Compound: O=C(CCSc1ccccc1)N1CCN(C(=O)c2ccco2)CC1
Target Of Assay: Voltage-gated potassium channel subunit beta-2 (Rattus norvegicus) (UniProt P62483)
Recorded Number: -3.1e-05

Compound: COc1cc(NS(=O)(=O)c2cccc3nsnc23)c(C(=O)O)cc1OC
Target Of Assay: Voltage-gated potassium channel subunit beta-2 (Rattus norvegicus) (UniProt P62483)
Recorded Number: -4.3e-05

Compound: O=C(c1ccc(N2C(=O)C3CC=C(Cl)CC3C2=O)cc1)N1CCCCC1 (stereo not given)
Target Of Assay: Voltage-gated potassium channel subunit beta-2 (Rattus norvegicus) (UniProt P62483)
Recorded Number: -2.5e-05

Compound: CC(=O)N1CCc2cc(S(=O)(=O)NC(CC(C)C)C(=O)N3CCn4c3nc3ccccc34)ccc21 (stereo not given)
Target Of Assay: Voltage-gated potassium channel subunit beta-2 (Rattus norvegicus) (UniProt P62483)
Recorded Number: 5e-05

Just for reference, PubChem BioAssay is where these values come from.
